B1: TTC32 (parent)
chain: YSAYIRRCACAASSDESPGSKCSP

- Variants of: B1
- METHOD SUMMARY: protein stability index of a GFP-peptide fusion (GPS, HEK-293T) (PSI 1-6); higher = more stable;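 further: lentivirally expressed fusions sorted by FACS into six bins by GFP to DsRed ratio, PSI derived from sequencing read proportions per bin multiplied by bin number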
- CONDITION DESCRIPTION: c terminus: a fixed tail appended
Reported protein stability index is given for each of the following variants.
Please reply with the number alone, leaving off any unit.

Would you please look over these solved cases?
>  <MUTANT ID>
C10W

>  <protein stability index>
1.44

$$$$
>  <MUTANT ID>
Y4I

>  <protein stability index>
2.08

$$$$
>  <MUTANT ID>
P18D

>  <protein stability index>
2.45

$$$$
>  <MUTANT ID>
A3H

>  <protein stability index>
2.15

$$$$
>  <MUTANT ID>
S17T

>  <protein stability index>
2.37

$$$$
>  <MUTANT ID>
C22D

>  <protein stability index>
2.22

$$$$
>  <MUTANT ID>
S2T

>  <protein stability index>
2.1

$$$$
>  <MUTANT ID>
S20K

>  <protein stability index>
2.23

$$$$

The variant listed as C22P has a reported protein stability index of 2.02

The variant listed as R7T has a reported protein stability index of 2.08

The variant listed as P18Y has a reported protein stability index of 1.6

The variant listed as P18M has a reported protein stability index of 1.68
